Measured TGI by item
- System: NCI-H522 lung
- assayText: NCI tumour cell line growth inhibition, 48 h
Where a SMILES comes first, the peptide text is derived from it.

Example entries begin here.
CN/C=C(\C(=O)c1ccc(OC)c(OC)c1)c1ccc(OC)cc1	36 µM
O=C(CCc1ccccc1)NS(=O)(=O)c1ccccc1	> 100 µM
Cc1ccc(/C=C(\NC(=O)c2ccccc2)c2nc3ccccc3[nH]2)cc1	> 100 µM
CC(C)(c1ccccc1)c1cc(O)c(C(C)(C)c2ccccc2)cc1O	16.7 µM
CCOC(=O)C1=C(C)NC2=C(C(=O)N(c3ccccc3)C2c2ccccc2)C1c1ccccc1 (stereo not given)	25.9 µM

Briefly, TGI measured for NC(=O)C1CCCN1C(=O)C(N)Cc1ccccc1 (stereo not drawn) (H-Phe-Pro-NH2; configuration not given here) : > 100 µM

Briefly, TGI measured for "CC(=O)NCCCCN(CCCNC(C)=O)C(=O)CNS(=O)(=O)c1cccc2c(N(C)C)cccc12" : > 100 µM

Briefly, TGI measured for "CC(C)(C)c1ccc2c(c1)C#Cc1cc(C(C)(C)C)ccc1OCCCO2" : > 100 µM

Briefly, TGI measured for COC1(C)C(=O)N2C1N(C(=O)OC(C)(C)C)CC2(C)C (stereo not given) : > 100 µM

Briefly, TGI measured for CC12CCC(=O)N1c1cncnc1N2 (stereo not given) : > 10 µM
